Entry source: the RNAGym collection of RNA variant scans (doi:10.7554/elife.80360)

B1: HDV Ribozyme (parent)
chain: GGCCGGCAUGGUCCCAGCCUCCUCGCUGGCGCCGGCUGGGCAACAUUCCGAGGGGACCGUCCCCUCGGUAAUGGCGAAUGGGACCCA

Variants of: B1
Assay: self-cleavage, relative activity (ratio to wild type); higher = more cleavage; co-transcriptional
Value kind: self-cleavage

GGCCUGCAUGGUCCCAGCCUCCUCGCUGGCGCCGGCUCGGCAACAUUCCGAGGGGACCGUCCCCUCGGUAAUGGCGAAUGGGACCCA 0.0875
GGCCGGCAUGGUCCCAGCCUCCUCGCUGGCGCCGGCUAGGCAACAUUCCGAGGGGACCGUCCCCUCGGUAAUGGCCAAUGGGACCCA 0.0767
GGCCGGCAUUGUCCCAGCUUCCUCGCUGGCGCCGGCUGGGCAACAUUCCGAGGGGACCGUCCCCUCGGUAAUGGCGAAUGGGACCCA 0.144
GGCCGGCAUGGUCCCAGCCUCCUCGAUGGCGCCGGCUGGGCAACAUUCCGAGGGGGCCGUCCCCUCGGUAAUGGCGAAUGGGACCCA 0.957
GGCCGGCAUGGUCCCAGCCUCCUCGCUGGCGCCGGCGGGGCAACAUUCCGAGGGGACCGUCCCCUCGGUAAUGGCGAAUGGUACCCA 0.0773

Any idea what self-cleavage was measured for GGCCGGCAUGGUCCUAGCCUCCACGCUGGCGCCGGCUGGGCAACAUUCCGAGGGGACCGUCCCCUCGGUAAUGGCGAAUGGGACCCA ?
0.831

Same thing, different variant: GGCCGGCAUGGUCCCAGCCUCCUCGCUGGCGCCGGUUGGGCAACAUUCCGAGGGGACCGUCCCCUCGGUAAUGGCUAAUGGGACCCA
1.05
